Test target: Phosphodiesterase 4 (Rattus norvegicus) (UniProt P14270+P14646+P14644+P54748)
Experimental details: In vitro inhibitory activity against phosphodiesterase 4 from rat liver at concentration of 3 uM
Endpoint: Inhibition
Your answer should be a number followed by the unit of measure.

Past entries and their recorded results:
Smiles str	Endpoint value
Cn1c(=O)n(Cc2ccccc2)c(=O)c2cc(-c3ccccc3)cnc21	31.3%
CCOc1ccc(-c2ccnc3c2c(=O)n(Cc2ccccc2)c(=O)n3C)cc1	35.1%
CCCOCc1cnc2c(c1)c(=O)n(Cc1ccccc1)c(=O)n2C	46.7%
Cn1c(=O)n(Cc2ccccc2)c(=O)c2cc(-c3cccc([N+](=O)[O-])c3)cnc21	23.5%
Cn1c(=O)n(Cc2ccccc2)c(=O)c2cc(-c3ccc(F)cc3)cnc21	44%

Look up Inhibition for the entries below, preserving their order.
1. Cn1c(=O)n(Cc2ccccc2)c(=O)c2cc(-c3ccccc3F)cnc21
2. Cn1c(=O)n(Cc2ccccc2)c(=O)c2cc(-c3ccc(Cl)cc3)cnc21

stdout:
["46.4%", "47.8%"]

Would you mind listing Inhibition for each of the following compounds?
1. Cn1c(=O)n(Cc2ccccc2)c(=O)c2c(-c3ccccc3F)ccnc21
2. Cn1c(=O)n(Cc2ccccc2)c(=O)c2cc(COCc3ccccc3)cnc21
3. Cn1c(=O)n(Cc2ccccc2)c(=O)c2cc(Cc3ccccc3)cnc21

stdout:
1. 69.7%
2. 49.8%
3. 68.2%

Source: ChEMBL document CHEMBL1134209
